Test system: CDK7
Details: concentration: 1 μM, replicates: in singlicate; n = 1;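 further: KINOMEscan kinase panel screen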
value.kind: %Inh (%)
# output: bare number, implied unit %

Entry Cl.N#CCc1ccc(Nc2nccc(Nc3ccc(Oc4ccccc4)cc3)n2)cc1 [GW639905] : %Inh on CDK7 = 0

Entry Cc1cc(-c2ccnc(Nc3cccc(C#N)c3)n2)cc(C)c1O [GSK1440913] : %Inh on CDK7 = 61

Entry `CC(=O)Nc1cn2nc(Oc3cccc(NC(=O)c4cccc(C(F)(F)F)c4)c3)ccc2n1` : %Inh on CDK7 = 0

Entry O=C(Nc1n[nH]c2nc(-c3ccccc3)ccc12)C1CC1 [SB-708999] : %Inh on CDK7 = 10

Entry CN(c1ccc2c(c1)nc(NCc1ccccc1)n2C)c1ccnc(Nc2ccc(CS(C)(=O)=O)cc2)n1.Cl [GW811603] : %Inh on CDK7 = 20

Entry Cc1ccc(NC(=O)c2ccnc(N3CCCCC3)c2)cc1-c1ccc(C(=O)NCC2CC2)cc1 [GW775610] : %Inh on CDK7 = 0

Entry COC(=O)Nc1nc2cc(Oc3ccc(NC(=O)Nc4cccc(SC)c4)cc3)ccc2[nH]1.Cl [GW697999] : %Inh on CDK7 = 54

Entry Cc1ccc(NC(=O)c2cccc(N3CCCCC3)c2)cc1-c1ccc(C(=O)NCC2CC2)cc1 [GSK1917008] : %Inh on CDK7 = 0

###

System: AURKC
Settings: concentration: 1 μM, replicates: in singlicate; n = 1
Please enter fulfilled where %Inh is greater than or equal to 20%, and not fulfilled where it is lower.

q: Exam item: decide whether the reported %Inh for COc1cc(Nc2nccc(N3CCC(NC(=O)Nc4ccc5c(c4)OCO5)C3)n2)cc(OC)c1OC (centres unmarked) is at least 20%.
a: fulfilled

q: Exam item: decide whether the reported %Inh for `CCOc1nccc(-c2c(-c3ccc(F)cc3)ncn2C2CCNCC2)n1` is at least 20%.
a: not fulfilled

q: Exam item: decide whether the reported %Inh for `CN(c1ccc(F)c(NC(=O)c2cccc(OC(C)(C)C#N)c2Cl)c1)c1ccc2nc(NC(=O)C3CC3)sc2n1` is at least 20%.
a: not fulfilled

q: Exam item: decide whether the reported %Inh for `COc1cccc(NC(=O)NCCNc2ccnc(Nc3ccc(F)cc3)n2)c1` is at least 20%.
a: fulfilled

q: Exam item: decide whether the reported %Inh for `N#Cc1cnc2cc(-c3cnc(CNCCN4CCOCC4)s3)ccc2c1Nc1ccc(Oc2ccccc2)cc1` is at least 20%.
a: fulfilled

q: Exam item: decide whether the reported %Inh for Cl.Cl.NC(CNC(=O)c1cc(Br)c(-c2ccnc3[nH]ccc23)s1)c1ccccc1 (centres unmarked) is at least 20%.
a: fulfilled

q: Exam item: decide whether the reported %Inh for `CCNc1nccc(-c2c(-c3ccc(F)cc3)ncn2C2CCN(C)CC2)n1` is at least 20%.
a: not fulfilled

q: Exam item: decide whether the reported %Inh for `CCn1c(-c2nonc2N)nc2c(-c3ccccc3)ncc(OCCCN)c21.O=C(O)C(F)(F)F.O=C(O)C(F)(F)F` is at least 20%.
a: not fulfilled

###

Answer each item with its documented %Inh.
Test system: EPHA1
Settings: concentration: 1 μM, replicates: in singlicate; n = 1
# output: bare number, implied unit %

Entry `CS(=O)(=O)c1cccc(CNc2nc(Nc3ccc4c(c3)CCC(=O)N4)ncc2C(F)(F)F)c1` : %Inh on EPHA1 = 1

Entry `Nc1cccc(-c2ccc3c(N)n[nH]c3c2)c1` : %Inh on EPHA1 = 9

Entry `CN(c1ccc(NC(=O)N2CCN(CCCN3CCOCC3)CC2)cc1)c1ccnc(Nc2ccc(CS(C)(=O)=O)cc2)n1.Cl` : %Inh on EPHA1 = 48

Entry `O=C(Nc1n[nH]c2nc(-c3ccccc3)ccc12)C1CC1` : %Inh on EPHA1 = 15

Entry CC(C)NCC(Cc1ccccc1)NC(=O)c1cc(Br)c(-c2ccnc3[nH]ccc23)s1.Cl.Cl (centres unmarked) : %Inh on EPHA1 = 6

Entry `CC(C)c1nc(-c2cccc(NS(=O)(=O)c3c(F)cccc3F)c2)c(-c2ccnc(Nc3ccc(N4CCOCC4)nc3)n2)s1.Cl` : %Inh on EPHA1 = 97.7

Entry `Nc1ncnc2scc(-c3ccc(NC(=O)Cc4cc(F)ccc4F)cc3)c12.O=C(O)C(F)(F)F` : %Inh on EPHA1 = 13

Entry `Cc1cc(-c2ccnc(Nc3cccc(C#N)c3)n2)cc(C)c1O` : %Inh on EPHA1 = 27

###

Tested on: TGFBR1
Conditions: concentration: 1 μM, replicates: in singlicate; n = 1
Please enter satisfied where %Inh is greater than or equal to 8%, and not satisfied where it is lower.

q: Exam item: decide whether the reported %Inh for `COC(=O)Nc1nc2ccc(Oc3ccc(CC(=O)Nc4cc(C(F)(F)F)ccc4F)cc3)cc2[nH]1` is at least 8%.
a: satisfied

q: Exam item: decide whether the reported %Inh for `Nc1ncc(-c2ccc3nccc(-c4ccncc4)c3c2)cc1S(=O)(=O)N1CCCCC1` is at least 8%.
a: not satisfied

q: Exam item: decide whether the reported %Inh for `O=C(Nc1c(F)cccc1F)c1cc(C(=O)c2ccccc2F)c[nH]1` is at least 8%.
a: not satisfied

q: Exam item: decide whether the reported %Inh for `Cc1ccc(NC(=O)c2cccc(N3CCCCC3)c2)cc1-c1ccc(C(=O)NCC2CC2)cc1` is at least 8%.
a: satisfied

q: Exam item: decide whether the reported %Inh for Cc1ccc(-c2ccc3occ(-c4ccc(S(C)=O)cc4)c3c2)nn1 (centres unmarked) is at least 8%.
a: not satisfied

q: Exam item: decide whether the reported %Inh for Cl.Cl.NC(CNC(=O)c1cc(Br)c(-c2ccnc3[nH]ccc23)s1)c1ccccc1 (centres unmarked) is at least 8%.
a: satisfied

q: Exam item: decide whether the reported %Inh for `CNc1nccc(-c2ccc3c(N)n[nH]c3c2)n1` is at least 8%.
a: satisfied

###

System: RSK3(Kin.Dom.1-N-terminal)
Construct: gene RPS6KA2
Settings: concentration: 1 μM, replicates: in singlicate; n = 1
Response field label takes YES when %Inh is strictly below 20% and NO in all other cases.

q: Strictly below 20% in %Inh? `c1ccc(Oc2ccc(Nc3ccnc4cc(-c5ccc(CN6CCCCC6)o5)ccc34)cc2)nc1`
a: YES

q: Strictly below 20% in %Inh? `O=C1NC(=O)C(c2ccccc2Cl)=C1Nc1cccc(Cl)c1`
a: NO

q: Strictly below 20% in %Inh? `Fc1cc(Cl)ccc1Nc1ccnc2cc(-c3ccc(CN4CCSCC4)o3)ccc12`
a: YES

q: Strictly below 20% in %Inh? `COc1cccc(-c2nc(-c3ccccc3)[nH]c2-c2ccncc2)c1`
a: YES

q: Strictly below 20% in %Inh? `O=C(Nc1n[nH]c2nc(-c3ccccc3)ccc12)C1CC1`
a: YES

q: Strictly below 20% in %Inh? `Cc1cccc(Nc2nc(N[C@H]3CCCC[C@H]3N)ncc2C(N)=O)c1.Cl`
a: NO

q: Strictly below 20% in %Inh? `Nc1cccc(-c2ccc3c(N)n[nH]c3c2)c1`
a: YES

q: Strictly below 20% in %Inh? `Cc1cccc(Nc2nc(NCCN)ncc2C(N)=O)c1`
a: YES

q: Strictly below 20% in %Inh? `Cc1ccccc1CC(=O)N1CCc2cc(-c3cn(C)c4ncnc(N)c34)ccc21`
a: NO

###

Tested on: PFTAIRE2
Conditions: concentration: 1 μM, replicates: in singlicate; n = 1
Please enter rule met where %Inh is greater than or equal to 10%, and rule not met where it is lower.

q: Exam item: decide whether the reported %Inh for CN(c1ccc(NC(=O)Nc2cccc(Cl)c2)cc1)c1ccnc(N)n1.Cl [GW830707] is at least 10%.
a: rule not met

q: Exam item: decide whether the reported %Inh for CC(C)c1nc(-c2cccc(NS(=O)(=O)c3c(F)cccc3F)c2)c(-c2ccnc(Nc3ccc(N4CCOCC4)nc3)n2)s1.Cl [GSK1723980] is at least 10%.
a: rule met

q: Exam item: decide whether the reported %Inh for `CN(c1ccc(F)c(NC(=O)c2cccc(OC(C)(C)C#N)c2Cl)c1)c1ccc2nc(NC(=O)C3CC3)sc2n1` is at least 10%.
a: rule met

q: Exam item: decide whether the reported %Inh for Cc1cc(-c2c(-c3ccc(F)cc3)ncn2CCCN2CCOCC2)nc(N)n1 [SB-222517] is at least 10%.
a: rule not met

q: Exam item: decide whether the reported %Inh for COc1ccc(C)c(Nc2ccnc(Nc3ccc(-c4cnc[nH]4)cc3)n2)c1.Cl [GW784041] is at least 10%.
a: rule not met

q: Exam item: decide whether the reported %Inh for c1ccc(Oc2ccc(Nc3ccnc4cc(-c5ccc(CN6CCCCC6)o5)ccc34)cc2)nc1 [GW567143] is at least 10%.
a: rule not met

q: Exam item: decide whether the reported %Inh for COc1cc(Nc2nccc(N3CCC(NC(=O)Nc4ccc5c(c4)OCO5)C3)n2)cc(OC)c1OC (centres unmarked) [GSK1379766] is at least 10%.
a: rule not met

q: Exam item: decide whether the reported %Inh for CCn1cnc2c(NCc3ccccc3)ncnc21 [SKF-96418] is at least 10%.
a: rule not met

q: Exam item: decide whether the reported %Inh for Nc1ncc(-c2ccc3nccc(-c4ccncc4)c3c2)cc1S(=O)(=O)N1CCCCC1 [GSK1693850] is at least 10%.
a: rule met

q: Exam item: decide whether the reported %Inh for Cl.Cl.NCC(NC(=O)c1cc(-c2cccnc2)c(-c2ccnc3[nH]ccc23)s1)c1ccccc1 (centres unmarked) [GSK1323434] is at least 10%.
a: rule met

q: Exam item: decide whether the reported %Inh for O=C(Nc1n[nH]c2nc(-c3ccccc3)ccc12)C1CC1 [SB-708999] is at least 10%.
a: rule not met

q: Exam item: decide whether the reported %Inh for CNc1nccc(-c2ccc3c(N)n[nH]c3c2)n1 [GSK2206003] is at least 10%.
a: rule met

q: Exam item: decide whether the reported %Inh for COC(=O)Nc1nc2ccc(Oc3ccc(NC(=O)Nc4cc(C(F)(F)F)ccc4F)cc3)cc2[nH]1.Cl [GW654607] is at least 10%.
a: rule met

q: Exam item: decide whether the reported %Inh for Cc1ccc(-c2ccc3occ(-c4ccc(S(C)=O)cc4)c3c2)nn1 (centres unmarked) is at least 10%.
a: rule not met

q: Exam item: decide whether the reported %Inh for COc1cccc(CC(=O)N2CCc3cc(-c4cn(C)c5ncnc(N)c45)ccc32)c1 [GSK2608899] is at least 10%.
a: rule met

q: Exam item: decide whether the reported %Inh for Cc1cc(-c2ccnc(Nc3cccc(C#N)c3)n2)cc(C)c1O [GSK1440913] is at least 10%.
a: rule met

q: Exam item: decide whether the reported %Inh for COc1cc(Nc2nccc(N3CCC(NS(=O)(=O)c4ccc(NC(C)=O)cc4)CC3)n2)cc(OC)c1OC [GSK1379825] is at least 10%.
a: rule not met

q: Exam item: decide whether the reported %Inh for Cc1ccc(NC(=O)c2cccc(N3CCCCC3)c2)cc1-c1ccc(C(=O)NCC2CC2)cc1 [GSK1917008] is at least 10%.
a: rule met

q: Exam item: decide whether the reported %Inh for COc1cccc(C2=C(Nc3cccc(O)c3)C(=O)NC2=O)c1 [SB-390771] is at least 10%.
a: rule met

q: Exam item: decide whether the reported %Inh for Cn1cc(-c2cnc(N)c3c(-c4ccc5c(c4)CCN5C(=O)Cc4ccccc4)csc23)cn1 [GSK2593074] is at least 10%.
a: rule not met

q: Exam item: decide whether the reported %Inh for Cc1ccc(O)cc1Nc1ccnc2ccc(C(C)(C)C)cc12 [GW856805] is at least 10%.
a: rule met

q: Exam item: decide whether the reported %Inh for CCn1c(-c2nonc2N)nc2c(-c3ccccc3)ncc(OCCCN)c21.O=C(O)C(F)(F)F.O=C(O)C(F)(F)F [GSK260205] is at least 10%.
a: rule not met

q: Exam item: decide whether the reported %Inh for Cl.O=C(Nc1ccc(Oc2ccc3[nH]c(NC(=O)c4ccco4)nc3c2)cc1)Nc1cc(C(F)(F)F)ccc1F [GW683134] is at least 10%.
a: rule met

q: Exam item: decide whether the reported %Inh for Cc1ccc(O)cc1Nc1ccnc2cc(-c3ccc(CN4CCCCC4)o3)ccc12 [GW557777] is at least 10%.
a: rule not met

q: Exam item: decide whether the reported %Inh for Cc1ccc(NC(=O)c2ccc(Cl)c(Cl)c2)cc1-c1ccc(C(=O)Nc2ccncc2)cc1 [GSK1398460] is at least 10%.
a: rule met

q: Exam item: decide whether the reported %Inh for CN(c1ccc(NC(=O)N2CCN(CCCN3CCOCC3)CC2)cc1)c1ccnc(Nc2ccc(CS(C)(=O)=O)cc2)n1.Cl [GW830899] is at least 10%.
a: rule met

q: Exam item: decide whether the reported %Inh for O=C(O)C(F)(F)F.O=c1[nH]ccc2nc(N[C@@H]3CCNC3)nc(Nc3ccc4c(c3)S(=O)(=O)CC4)c12 [GSK2181306] is at least 10%.
a: rule met

q: Exam item: decide whether the reported %Inh for COc1cccc2c(-c3ccncc3)c(-c3ccc(F)cc3)nn12 [GW468513] is at least 10%.
a: rule not met

q: Exam item: decide whether the reported %Inh for `CC(C)(C)c1ccc(C(=O)Nc2cn3cc(-n4ccnc4)ccc3n2)cc1` is at least 10%.
a: rule not met

q: Exam item: decide whether the reported %Inh for COc1cc(Nc2ccnc3cc(-c4ccncc4)ccc23)cc(OC)c1OC.Cl [GW494610] is at least 10%.
a: rule met

q: Exam item: decide whether the reported %Inh for Cn1cc(-c2ccc3c(c2)CCN3C(=O)Cc2cc(F)cc(C(F)(F)F)c2)c2c(N)ncnc21 [GSK2635225] is at least 10%.
a: rule met

q: Exam item: decide whether the reported %Inh for CN(C)CCOc1ccc(-c2cc(-c3ccc(Cl)c(O)c3)c(-c3ccncc3)[nH]2)cc1.Cl.Cl [SB-684387] is at least 10%.
a: rule met

q: Exam item: decide whether the reported %Inh for `CS(=O)(=O)c1cccc(CNc2nc(Nc3ccc4c(c3)CCC(=O)N4)ncc2C(F)(F)F)c1` is at least 10%.
a: rule met

q: Exam item: decide whether the reported %Inh for CC(C)c1nc(-c2ccc(F)c(NS(=O)(=O)c3c(F)cccc3F)c2)c(-c2ccnc(Nc3ccc(N4CCOCC4)nc3)n2)s1 [GSK1804250] is at least 10%.
a: rule met

q: Exam item: decide whether the reported %Inh for Cc1cccc(Nc2nc(N[C@H]3CCCC[C@H]3N)ncc2C(N)=O)c1.Cl [GSK986310] is at least 10%.
a: rule met
